Tested on: SR
EXPERIMENTAL_DETAILS: NCI tumour cell line growth inhibition, 48 h
Activity calls are given as the source filed them. Cut-off read from the data, not from the text of the source: active = GI50 up to about 1.1 µM and inactive = higher.
// classify into active, inactive

stdin: Please share the test call associated with CN(C)/N=N/c1[nH]cnc1C(N)=O .
stdout: inactive

stdin: Please share the test call associated with CSc1ncc2c(C#N)c3[nH]c4ccccc4n3c(=O)c2n1 .
stdout: inactive

stdin: Please share the test call associated with CC(=O)OC1c2ccccc2CC2(OC(C)=O)c3ccccc3C12 (stereo not drawn) .
stdout: inactive

stdin: Please share the test call associated with C1=C\SS/C=C\SS/1 .
stdout: inactive

stdin: Please share the test call associated with CO[C@H]1C[C@H](O[C@H]2CC[C@]3(C=O)[C@H]4CC[C@]5(C)[C@@H](C6=CC(=O)OC6)CC[C@]5(O)[C@@H]4CC[C@]3(O)C2)O[C@H](C)[C@H]1O .
stdout: active

stdin: Please share the test call associated with O=C1Oc2ccccc2C(=O)/C1=C/N1C(=O)/C(=C/c2ccc([N+](=O)[O-])cc2)SC1=S .
stdout: inactive

stdin: Please share the test call associated with CCCCCCCCC(C)CCCCCCCCC(=O)OCC(COP(=O)([O-])OCC[N+](C)(C)C)OC(=O)CCCCCCCCC(C)CCCCCCCC (stereo not drawn) .
stdout: inactive

stdin: Please share the test call associated with O=C(Nc1ccc2[nH]c(C(=O)N3CC(CCl)c4c3cc([N+](=O)[O-])c3ccccc43)cc2c1)c1cc2ccccc2o1 (stereo not drawn) .
stdout: inactive

----------
Test system: EKVX
EXPERIMENTAL_DETAILS: NCI tumour cell line growth inhibition, 48 h
The source made the active and inactive calls. Rule as the data show it: active = GI50 up to about 1.1 µM and inactive = higher.
// classify into active, inactive

stdin: Please share the test call associated with CO[C@H]1C[C@H](O[C@H]2CC[C@]3(C=O)[C@H]4CC[C@]5(C)[C@@H](C6=CC(=O)OC6)CC[C@]5(O)[C@@H]4CC[C@]3(O)C2)O[C@H](C)[C@H]1O .
stdout: active

stdin: Please share the test call associated with N=CCCN(CCC=N)c1ccc(/C=C2\CN(NC(=O)c3ccc(Cl)cc3)C(c3ccccc3)=N2)cc1 .
stdout: inactive

stdin: Please share the test call associated with CCC(NC1=NCCO1)c1cccs1 (stereo not drawn) .
stdout: inactive

stdin: Please share the test call associated with COC(=O)/C=C/[C@@H]1[C@H](C)N1S(=O)(=O)c1ccc(C)cc1 (stereo partly drawn) .
stdout: inactive

stdin: Please share the test call associated with COC(=O)C(Cc1ccccc1)NS(=O)(=O)c1ccc(-c2c3nc(c(-c4ccc(S(=O)(=O)NC(Cc5ccccc5)C(=O)OC)cc4)c4ccc([nH]4)c(-c4ccc(S(=O)(=O)NC(Cc5ccccc5)C(=O)OC)cc4)c4nc(c(-c5ccc(S(=O)(=O)NC(Cc6ccccc6)C(=O)OC)cc5)c5ccc2[nH]5)C=C4)C=C3)cc1 (stereo not drawn) .
stdout: inactive

stdin: Please share the test call associated with COc1cccc(C23CCN(C)C(CC(O)C2)C3)c1OC (stereo not drawn) .
stdout: inactive

stdin: Please share the test call associated with CCOC(=O)/C(=C\c1c(C)[nH]c2ccccc12)P(=O)(OCC)OCC .
stdout: inactive

stdin: Please share the test call associated with N#Cc1c(-c2ccco2)c2c(n(C3OC(CO)C(O)C(O)C3O)c1=S)CCCC2 (stereo not drawn) .
stdout: inactive

----------
Test system: OVCAR-4
EXPERIMENTAL_DETAILS: NCI tumour cell line growth inhibition, 48 h
Calls of active or inactive are those of the source. No stated cut-off is given here; in the data, active = GI50 up to about 1.1 µM and inactive = higher.
MEASUREMENT_KIND: GI50

stdin: May I ask what GI50 has been recorded for CCc1n[nH]c(=O)n1/N=C/c1ccc(C)cc1 ?
stdout: 58.5 µM (inactive)

stdin: May I ask what GI50 has been recorded for CCOC(=O)C1C(=O)CC(C)(O)C(C(=O)OCC)C1c1ccc(O)c(OC)c1 (configuration not stated) ?
stdout: > 100 µM (inactive)

stdin: May I ask what GI50 has been recorded for Nc1nc(=O)n(C2OC(CO)C(O)C2O)cc1F (configuration not stated) ?
stdout: > 100 µM (inactive)

stdin: May I ask what GI50 has been recorded for CC(O)CN1c2ccccc2Sc2ccccc21 (configuration not stated) ?
stdout: > 100 µM (inactive)

stdin: May I ask what GI50 has been recorded for Nc1nc(Cl)c2ncn(Cc3cccc(CCl)c3)c2n1 ?
stdout: 2.13 µM (inactive)

stdin: May I ask what GI50 has been recorded for CCOC(=O)N1c2c(ccn2C)-c2ccn(C)c2N1C(=O)OCC ?
stdout: > 10 µM (inactive)

stdin: May I ask what GI50 has been recorded for CCN(CC)c1ccc2cc(C(=O)Nc3ccccn3)c(=N)oc2c1 ?
stdout: > 100 µM (inactive)

stdin: May I ask what GI50 has been recorded for CNC(=O)OC(C)CN1c2ccccc2Sc2ccccc21 (configuration not stated) ?
stdout: 74.5 µM (inactive)

stdin: May I ask what GI50 has been recorded for Cc1ccc(C(=O)N(C2CCCCC2)C2CCCCC2)cc1/N=N/N(C)C ?
stdout: 10.4 µM (inactive)

stdin: May I ask what GI50 has been recorded for CC1=C(C(=O)Nc2c(C)cccc2C)C(c2ccccc2Cl)C(C(=O)Nc2c(C)cccc2C)=C(C)N1 ?
stdout: > 100 µM (inactive)

stdin: May I ask what GI50 has been recorded for Sc1nn2c(COc3ccc(Cl)cc3)nnc2s1 ?
stdout: > 100 µM (inactive)

stdin: May I ask what GI50 has been recorded for COc1cccc(C23CCN(C)C(CC(O)C2)C3)c1OC (configuration not stated) ?
stdout: > 100 µM (inactive)
